# furin cleavage Z-score per entry
Target: furin, P09958;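 also: purified furin at 1:10 enzyme:substrate in 50 mM HEPES pH 7.5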
Sequence (P09958 whole entry): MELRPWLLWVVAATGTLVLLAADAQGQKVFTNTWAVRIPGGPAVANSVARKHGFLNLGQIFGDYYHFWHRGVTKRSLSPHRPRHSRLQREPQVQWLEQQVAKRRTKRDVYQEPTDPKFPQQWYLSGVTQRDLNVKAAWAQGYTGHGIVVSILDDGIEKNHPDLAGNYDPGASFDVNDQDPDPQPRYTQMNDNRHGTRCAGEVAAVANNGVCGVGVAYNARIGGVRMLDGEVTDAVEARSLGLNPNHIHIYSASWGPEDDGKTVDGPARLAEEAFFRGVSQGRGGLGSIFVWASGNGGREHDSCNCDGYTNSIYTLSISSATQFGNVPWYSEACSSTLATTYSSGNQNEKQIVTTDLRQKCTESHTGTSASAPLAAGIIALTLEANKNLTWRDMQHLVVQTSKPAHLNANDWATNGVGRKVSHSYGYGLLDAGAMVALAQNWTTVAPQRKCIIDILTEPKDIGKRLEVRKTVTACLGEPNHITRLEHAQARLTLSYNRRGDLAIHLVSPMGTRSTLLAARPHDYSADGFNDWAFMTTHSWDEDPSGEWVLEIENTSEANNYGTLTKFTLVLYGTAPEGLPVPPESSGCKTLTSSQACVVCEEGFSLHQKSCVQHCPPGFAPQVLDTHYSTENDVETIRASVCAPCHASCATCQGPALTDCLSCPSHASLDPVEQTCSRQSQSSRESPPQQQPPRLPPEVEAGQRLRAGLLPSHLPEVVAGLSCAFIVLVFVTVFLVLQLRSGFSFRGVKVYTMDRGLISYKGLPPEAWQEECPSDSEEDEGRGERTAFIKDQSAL
Assay: furin cleavage Z-score vs untreated control; higher = more cleavage, active = 3.5 or more, inactive = 1 or less, 8 variable residues between constant flanks
Conditions: 7.5 min
Some of the results follow. How many sequences the whole screen found active is unknown.

Example results:
[
  {
    "chain": "CAVSSRKSRWAGNASASA [FS-1501]",
    "furin cleavage Z-score": 3.21
  },
  {
    "chain": "CARSNRQLGIAGNASASA [FS-2185]",
    "furin cleavage Z-score": "0.465 (inactive)"
  },
  {
    "chain": "CAVSRRARRFAGNASASA [FS-1436]",
    "furin cleavage Z-score": "10.2 (active)"
  },
  {
    "chain": "CAEQVTSTWVAGNASASA [HC2182]",
    "furin cleavage Z-score": 1.33
  },
  {
    "chain": "CAAAARARRFAGNASASA [FS-1108]",
    "furin cleavage Z-score": 2.41
  }
]

Enquiry: Which furin cleavage Z-score value belongs to CAVSKRHVRIAGNASASA [FS-2114] ?
Return: -0.647 (inactive)

Enquiry: Which furin cleavage Z-score value belongs to CANWQKLETFAGNASASA [HC1037] ?
Return: 0.812 (inactive)
